test system: Toll-like receptor 4 (Homo sapiens, UniProt O00206)
Sequence (O00206 whole entry): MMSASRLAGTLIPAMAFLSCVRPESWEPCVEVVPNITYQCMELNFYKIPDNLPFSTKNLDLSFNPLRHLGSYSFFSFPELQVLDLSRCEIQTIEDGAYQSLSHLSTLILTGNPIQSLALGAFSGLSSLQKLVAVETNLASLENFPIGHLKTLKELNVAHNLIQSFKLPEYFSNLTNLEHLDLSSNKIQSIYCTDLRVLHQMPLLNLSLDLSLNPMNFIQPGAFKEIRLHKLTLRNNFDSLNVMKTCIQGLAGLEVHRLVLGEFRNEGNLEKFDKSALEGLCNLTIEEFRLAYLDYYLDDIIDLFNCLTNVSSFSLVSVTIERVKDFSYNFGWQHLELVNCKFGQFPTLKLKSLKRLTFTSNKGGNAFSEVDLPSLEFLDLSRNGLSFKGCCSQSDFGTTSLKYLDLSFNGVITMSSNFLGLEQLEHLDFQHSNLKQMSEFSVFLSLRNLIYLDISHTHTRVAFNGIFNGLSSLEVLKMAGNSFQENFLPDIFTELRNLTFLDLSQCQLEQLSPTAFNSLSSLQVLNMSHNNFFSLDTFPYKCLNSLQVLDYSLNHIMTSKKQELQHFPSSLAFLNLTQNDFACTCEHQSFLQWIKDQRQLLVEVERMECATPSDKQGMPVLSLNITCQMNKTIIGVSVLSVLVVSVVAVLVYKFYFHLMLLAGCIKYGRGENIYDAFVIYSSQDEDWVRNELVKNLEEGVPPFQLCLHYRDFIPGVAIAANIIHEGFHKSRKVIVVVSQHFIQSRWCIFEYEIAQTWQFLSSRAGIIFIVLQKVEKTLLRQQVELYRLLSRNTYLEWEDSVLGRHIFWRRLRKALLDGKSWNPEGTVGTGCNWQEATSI
assay protocol: Antagonist activity at TLR4 (unknown origin)
readout: pIC50
Answers are plain numbers, as −log10 of the molar value.

Ask: Recorded pIC50 for H-LGVFSSWWIKLV-OH , please?
Result: 4.40

###

test system: Toll-like receptor 4 (Homo sapiens, UniProt O00206)
assay protocol: Antagonist activity at TLR4 (unknown origin) assessed as inhibition of proinflammatory cytokines
readout: IC50 (µM)
Answers are plain numbers, in µM.

Ask: Give Toll-like receptor 4 (Homo sapiens, UniProt O00206) IC50 for H-LGVFSSWWIKLV-OH
Result: 20
